Tested on: soybean (Glycine max)
method summary: Test C greenhouse herbicide test, pre- and postemergence
Type: in vivo
condition info: Preemergence, 125 g ai/ha; scale 0 to 100, 0 is no effect, 100 is complete control
Met means recorded Plant response rating, Soybean is 10 or above; Not met means it is below 10.

Please review the following examples before continuing.
Cc1ccc2sc(C)c(-c3c(O)c(C)nn(C)c3=O)c2c1; Not met
Cc1ccc2ccccc2c1-c1c(O)c(C)nn(C)c1=O; Met
Cc1ccc2ccc(C)c(-c3c(O)c(C)nn(C)c3=O)c2c1; Met

stdin: Record `Cc1nn(C)c(=O)c(-c2c(C)sc3ccc(Cl)cc23)c1O` ; criterion: Plant response rating, Soybean no lower than 10. Met?
stdout: Not met

stdin: Check if Plant response rating, Soybean >= 10 (inclusive). Item: `COc1nn(C)c(=O)c(-c2c(C)ccc3ccccc23)c1OC(=O)OC(C)C`
stdout: Met

stdin: Is reported Plant response rating, Soybean greater than or equal to 10 here: `COC(=O)Oc1c(Br)nn(C)c(=O)c1-c1c(C)ccc2ccccc12`
stdout: Met

stdin: Form field: Plant response rating, Soybean at least 10? Entry: `CC(=O)Oc1c(Br)nn(C)c(=O)c1-c1c(C)ccc2ccccc12`
stdout: Not met

* * *

Please go through the items and note down their Plant response rating, Chickweed.
System: chickweed (common chickweed, Stellaria media)
method summary: Test C greenhouse herbicide test, postemergence
Format: in vivo
condition info: Postemergence, 125 g ai/ha; scale 0 to 100, 0 is no effect, 100 is complete control
Give bare numbers.

CCC(=O)Oc1c(C)nn(C)c(=O)c1-c1c(C)sc2ccc(C)cc12; 100
CC(=O)Oc1c(C)nn(C)c(=O)c1-c1ccc(F)c2ccccc12; 95
CC(=O)Oc1c(C)nn(C)c(=O)c1-c1c(C)sc2c(C)cc(C)cc12; 100

Give Plant response rating, Chickweed for each listed item.
1. Cc1ccc2ccccc2c1-c1c(O)c(C)nn(C)c1=O
2. CCCC(=O)Oc1c(C)nn(C)c(=O)c1-c1c(C)sc2c(C)cc(C)cc12
3. CCOC(=O)Oc1c(C)nn(C)c(=O)c1-c1c(C)sc2ccc(C)cc12
4. COc1nn(C)c(=O)c(-c2c(C)ccc3ccccc23)c1OC(=O)OC(C)C
5. CCOC(=O)Oc1c(C)nn(C)c(=O)c1-c1c(C)ccc2ccccc12
6. Cc1cc(C)c2ccccc2c1-c1c(O)cnn(C)c1=O
7. Cc1sc2ccc(Cl)cc2c1-c1c(OS(C)(=O)=O)c(Cl)nn(C)c1=O

stdout:
1: 98; 2: 95; 3: 90; 4: 95; 5: 95; 6: 70; 7: 98

stdin: Please report Plant response rating, Chickweed for the following molecule: `Cc1ccc2ccc(C)c(-c3c(O)c(C)nn(C)c3=O)c2c1`
stdout: 95

* * *

System: wheat, winter (winter wheat, Triticum aestivum)
method summary: Test D controlled growth environment herbicide test, pre- and postemergence
Assay type: in vivo
condition info: Postemergence, 250 g ai/ha; scale 0 to 100 (0 no effect, 100 complete control)
quantity kind: Plant response rating, Wheat, Winter
One number for each entry.

Cc1ccc2ccccc2c1-c1c(O)c(C)nn(C)c1=O [Compound 59]; 80
Cc1nn(C)c(=O)c(-c2c(C)sc3ccc(Cl)cc23)c1O [Compound 104]; 25

I would be grateful if you could provide Plant response rating, Wheat, Winter for each of the following entries.
1. CC(=O)Oc1c(Br)nn(C)c(=O)c1-c1c(C)ccc2ccccc12 [Compound 129]
2. Cc1ccc(-c2c(O)c(Br)nn(C)c2=O)c2ccccc12 [Compound 52]
3. CCOC(=O)Oc1c(C)nn(C)c(=O)c1-c1c(C)sc2c(C)cc(C)cc12 [Compound 83]
4. CCC(=O)Oc1c(C)nn(C)c(=O)c1-c1c(C)sc2ccc(Cl)cc12 [Compound 109]
5. CCOC(=O)Oc1c(C)nn(C)c(=O)c1-c1c(C)sc2ccc(C)cc12 [Compound 82]

stdout:
[55, 15, 10, 35, 0]

The following molecules each have a reported value; give each one's Plant response rating, Wheat, Winter.
1. CCC(=O)Oc1c(C)nn(C)c(=O)c1-c1c(C)sc2ccc(C)cc12 [Compound 42]
2. COc1nn(C)c(=O)c(-c2c(C)ccc3ccccc23)c1OC(=O)OC(C)C [Compound 36]
3. CC(=O)Oc1c(C)nn(C)c(=O)c1-c1c(C)cc(C)c2ccccc12 [Compound 153]

stdout:
1. 15
2. 15
3. 35

* * *

Tested on: windgrass (Apera spica-venti)
method summary: Test D controlled growth environment herbicide test, pre- and postemergence
Format: in vivo
condition info: Preemergence, 31 g ai/ha
quantity kind: Plant response rating (scale of 0 to 100), Windgrass
Give bare numbers.

Worked examples follow.
Cc1nn(C)c(=O)c(-c2c(C)sc3ccc(Cl)cc23)c1O; 70
Cc1ccc(-c2c(O)c(Br)nn(C)c2=O)c2ccccc12; 10
Cc1cc(C)c2sc(C)c(-c3c(OC(=O)OCCCl)c(C)nn(C)c3=O)c2c1; 55
CCOC(=O)Oc1c(C)nn(C)c(=O)c1-c1c(C)sc2ccc(C)cc12; 75
CC(=O)Oc1c(C)nn(C)c(=O)c1-c1c(C)sc2ccc(C)cc12; 75

Lab note: next molecule to report on.
stdin: Let me know recorded Plant response rating (scale of 0 to 100), Windgrass for `CC(=O)Oc1c(C)nn(C)c(=O)c1-c1c(C)cc(C)c2ccccc12` , thanks.
stdout: 75

* * *

System: corn (Zea mays)
method summary: Test C greenhouse herbicide test, pre- and postemergence
Type: in vivo
condition info: Postemergence, 31 g ai/ha; scale 0 to 100 (0 no effect, 100 complete control)
quantity kind: Plant response rating, Corn

CC(=O)Oc1c(C)nn(C)c(=O)c1-c1c(C)cc(C)c2ccccc12; 20
CCCC(=O)Oc1c(C)nn(C)c(=O)c1-c1c(C)sc2c(C)cc(C)cc12; 0
Cc1ccc2ccccc2c1-c1c(OC(=O)N2CCOCC2)c(Br)nn(C)c1=O; 0

stdin: Item `Cc1nn(C)c(=O)c(-c2c(C)sc3ccc(Cl)cc23)c1O` : provide Plant response rating, Corn
stdout: 5

* * *

System: pigweed, palmer (palmer pigweed, Amaranthus palmeri)
method summary: Test E greenhouse herbicide test, pre- and postemergence
Assay type: in vivo
condition info: 250 g ai/ha, Postemergence; scale 0 to 100 (0 no effect, 100 complete control)
For each of the compounds below, state its Plant response rating, Pigweed, Palmer.
Answers are plain numbers.

CCC(=O)Oc1c(C)nn(C)c(=O)c1-c1c(C)sc2c(C)cc(C)cc12; 50
COC(=O)Oc1c(C)nn(C)c(=O)c1-c1c(C)sc2c(C)cc(C)cc12; 50

Below is a list of compounds. For each, state its recorded Plant response rating, Pigweed, Palmer.
1. CSCC(=O)Oc1c(C)nn(C)c(=O)c1-c1cccc2ccccc12
2. Cc1cc(C)c2sc(C)c(-c3c(OC(=O)OCCCl)c(C)nn(C)c3=O)c2c1
3. Cc1ccc2sc(C)c(-c3c(O)c(C)nn(C)c3=O)c2c1
4. CCOC(=O)Oc1c(C)nn(C)c(=O)c1-c1c(C)sc2ccc(C)cc12

stdout:
[70, 80, 98, 65]

* * *

Tested on: blackgrass (Alopecurus myosuroides)
method summary: Test C greenhouse herbicide test, pre- and postemergence
Type: in vivo
condition info: Postemergence, 31 g ai/ha; 0 to 100 scale (0 no effect, 100 complete control)
Kindly state Blackgrass plant response rating for each of the entries shown.

Below, 8 compounds whose answers are already recorded.
CCOC(=O)Oc1c(C)nn(C)c(=O)c1-c1c(C)ccc2ccccc12; 40
COc1nn(C)c(=O)c(-c2c(C)ccc3ccccc23)c1O; 15
CC(=O)Oc1c(C)nn(C)c(=O)c1-c1c(C)oc2ccc(C)cc12; 0
CC(=O)Oc1c(C)nn(C)c(=O)c1-c1c(C)sc2ccc(C)cc12; 30
CCOC(=O)Oc1c(C)nn(C)c(=O)c1-c1c(CC)ccc2ccccc12; 35
CCC(=O)Oc1c(C)nn(C)c(=O)c1-c1c(C)sc2ccc(C)cc12; 30
CC(=O)Oc1c(C)nn(C)c(=O)c1-c1ccc(F)c2ccccc12; 10
CCOC(=O)Oc1c(C)nn(C)c(=O)c1-c1c(C)sc2ccc(C)cc12; 10

Hi! Can you tell me Blackgrass plant response rating for each of these compounds?
1. C#CCOC(=O)Oc1c(C)nn(C)c(=O)c1-c1c(C)sc2ccc(C)cc12
2. CC(=O)Oc1c(C)nn(C)c(=O)c1-c1c(C)sc2c(C)cc(C)cc12

stdout:
10
50

* * *

Test system: galium (catchweed bedstraw, Galium aparine)
method summary: Test C greenhouse herbicide test, pre- and postemergence
Format: in vivo
condition info: Preemergence, 31 g ai/ha; scale 0 to 100, 0 is no effect, 100 is complete control
So I've got a bunch of compounds here, and I need their Plant response rating, Galium values.
One number for each entry.

Solved entries:
COC(=O)Oc1c(Br)nn(C)c(=O)c1-c1c(C)ccc2ccccc12; 98
CCC(=O)Oc1c(C)nn(C)c(=O)c1-c1ccc(Br)c2ccccc12; 95
Cc1cc(C)c2sc(C)c(-c3c(OC(=O)OCCCl)c(C)nn(C)c3=O)c2c1; 90
CCC(=O)Oc1c(C)nn(C)c(=O)c1-c1c(C)sc2ccc(Cl)cc12; 90
CC(=O)Oc1c(C)nn(C)c(=O)c1-c1c(C)cc(C)c2ccccc12; 95

Hi! Can you tell me Plant response rating, Galium for each of these compounds?
1. CC(=O)Oc1c(C)nn(C)c(=O)c1-c1c(C)sc2ccc(C)cc12
2. Cc1cc(C)c2ccccc2c1-c1c(OS(C)(=O)=O)c(C)nn(C)c1=O
3. Cc1ccc2ccccc2c1-c1c(O)c(Cl)nn(C)c1=O
4. CCOC(=O)Oc1c(C)nn(C)c(=O)c1-c1c(C)sc2ccc(C)cc12
5. CC(=O)Oc1c(Br)nn(C)c(=O)c1-c1c(C)ccc2ccccc12
6. CCOC(=O)Oc1c(C)nn(C)c(=O)c1-c1c(CC)ccc2ccccc12
7. COc1nn(C)c(=O)c(-c2c(C)ccc3ccccc23)c1OC(=O)OC(C)C

stdout:
[90, 98, 100, 90, 95, 100, 100]

stdin: State, in one line, measured Plant response rating, Galium of `Cc1ccc2ccccc2c1-c1c(O)c(C)nn(C)c1=O`
stdout: 98

Values compiled from patent US10597388B2.
